test system: HOP-18; assay: NCI tumour cell line growth inhibition, 48 h
Activity calls are given as the source filed them. Cut-off read from the data, not from the text of the source: active = GI50 up to about 1.1 µM and inactive = higher.
Your response should consist of one outcome taken from active, inactive

CC1(C(=O)O)CCC[C@@]2(C)C1CC[C@@]1(C)c3cocc3CCC21 (some centres not stated) :: inactive

Field: outcome | Entry: "O=C1N=C2Sc3ccc4ccccc4c3N2C1=O"
inactive

What did the test return for "COc1ccc(/C=C2\C(=O)NC(=O)c3ccccc32)cc1OC" ?
inactive

Dear colleague, could you share the recorded outcome for c1cc2c3c(c1)c1cc4c(cc1c[n+]3CC2)OCO4 [ANHYDROLYCORINIUM CHLORIDE] when you have a moment?
inactive

====

tested on: SK-OV-3; experiment: NCI tumour cell line growth inhibition, 48 h
Active and inactive are the calls of the source. No stated cut-off is given here; in the data, active = GI50 up to about 1.1 µM and inactive = higher.
Entries and their measured GI50 follow.

COC(=O)c1c(CC(Cc2ccc3c(c2)CCCC3)C(=O)O)ccc2c1CCCC2 (stereo not given) :: 41 µM (inactive)

Consider the additional compound presented here.
May I ask what GI50 has been recorded for CC1=C/C(=N\OCC(=O)O)CC(c2ccc(C(C)C)cc2)C1 (stereo not given) ?
> 100 µM (inactive)

====

tested on: EKVX; assay: NCI tumour cell line growth inhibition, 48 h
The source made the active and inactive calls. Cut-off read from the data, not from the text of the source: active = GI50 up to about 1.1 µM and inactive = higher.
Write down one outcome, taken from true (1) for active, false (0) for inactive

O=C1/C(=C/c2ccc3c(c2)CCC3)Cc2cc3c(cc21)CCC3 :: false (0)
CCCCOCn1c(=O)[nH]c(=O)c2cc(Br)ccc21 :: false (0)

Let's switch to this compound now.
Short answer needed: outcome of this test for C/C=C/[C@H]1O[C@@](O)([C@@H](C)[C@H](O)[C@H](C)[C@H]2OC(=O)/C(OC)=C/C(C)=C/[C@@H](C)[C@@H](O)[C@@H](CC)[C@@H](O)[C@H](C)C/C(C)=C/C=C/[C@@H]2OC)C[C@H](OC2CC(O)C(OC(N)=O)C(C)O2)[C@@H]1C (stereo partly drawn) ?
true (1)

====

test system: BT-549; test: NCI tumour cell line growth inhibition, 48 h
Active and inactive are the calls of the source. Cut-off read from the data, not from the text of the source: active = GI50 up to about 1.1 µM and inactive = higher.
Thanks in advance; please answer with one of these: active, inactive

Answered examples (3):
COc1ccc(OC)c(CSc2ccc(OC)c(OC)c2)c1 :: inactive
CCN(CC)P(=O)(c1ccc2c(c1)OCCOCCOCCOCCO2)N(CC)CC :: inactive
COC(=O)NC(Nc1ccc(Cl)cc1Cl)(C(F)(F)F)C(F)(F)F :: inactive

Could you check what this test reported for CC(NC(=O)c1ccccc1)NC(=O)C(C)C(=O)Nc1ccccc1 (configuration not stated) ?
inactive

Give the logged outcome of this assay for the following compound: NC(=O)C(N)Cc1ccc(O)cn1 (configuration not stated)
inactive

What was the test verdict on "CC(C)=CCC/C(C)=C/CC/C(C)=C/CC/C(C)=C/CC/C(C)=C/CC/C(C)=C/CC/C(C)=C/CC/C(C)=C/CC/C(C)=C/CO" ?
inactive

For "COc1cc(-c2oc3c(OC)c(O)c(OC)c(O)c3c(=O)c2OC)ccc1O" , what call appears in the results of this test?
inactive

Given COc1ccc(NC2CC(C)N(C(=O)c3ccccc3)O2)cc1 (configuration not stated) , state the outcome it received in this test.
inactive

Dear all, I need the recorded test outcome for O=C(O)CC(Nc1ccccc1)C(=O)O (configuration not stated) , thank you.
inactive

Recorded test call requested for COc1c(OC(C)C)c(OC(C)C)c2oc(=O)n3c2c1C(c1ccccc1-n1c(C)ccc1C)C=C3 (configuration not stated)
inactive

Hi, sorry to bother you, what did the test record for C/C=C/[C@H]1O[C@@](O)([C@@H](C)[C@H](O)[C@H](C)[C@H]2OC(=O)/C(OC)=C/C(C)=C/[C@@H](C)[C@@H](O)[C@@H](CC)[C@@H](O)[C@H](C)C/C(C)=C/C=C/[C@@H]2OC)C[C@H](OC2CC(O)C(OC(N)=O)C(C)O2)[C@@H]1C (some centres not stated) ?
active

// outcome(item) with item = CCC1C(NC(=O)OC)C(=O)N1[C@@H](C)c1ccccc1 (some centres not stated)
inactive

Field: outcome | Entry: "[N-]=[N+]=NC1=C(C(=O)c2ccccc2)C(=O)c2cccc3cccc1c23"
inactive

====

In this section we review reported GI50 values for a set of compounds.
system: PC-3; test: NCI tumour cell line growth inhibition, 48 h
Activity calls are given as the source filed them. No stated cut-off is given here; in the data, active = GI50 up to about 1.1 µM and inactive = higher.

O=C1c2c(O)cccc2C(C(=O)CCCC(=O)C2c3cccc(O)c3C(=O)c3c(O)cccc32)c2cccc(O)c21 :: 0.0787 µM (active)
CN1C(=O)C2(C=CC(O)CC2)c2ccccc21 (stereo not given) :: > 100 µM (inactive)
COc1nc(C#CCCCC#N)nc(OC)n1 :: 13.2 µM (inactive)
O=C(NC1CCC(=O)N1C(=O)OCc1ccccc1)OCc1ccccc1 (stereo not given) :: > 100 µM (inactive)
Cc1c(/C=N/NC(=S)Nc2ccc(Cl)cc2)c(=O)n(-c2ccccc2)n1C :: > 52.1 µM (inactive)
Cc1cc2c(cc1Cl)SC(NNC(=O)c1ccccc1)=NS2(=O)=O :: > 10 µM (inactive)
O=c1[nH]c2ccc(CC(=S)N3CCCCC3)cc2s1 :: > 100 µM (inactive)
CC(C)=CCC/C(C)=C/CC/C(C)=C/CC/C(C)=C/CC/C(C)=C/CC/C(C)=C/CC/C(C)=C/CC/C(C)=C/CC/C(C)=C/CO :: > 100 µM (inactive)
COc1ccc(NC(=O)CC(=O)n2nc(-c3ccccc3)c(/N=N/c3ccc(C)cc3)c2-c2ccccc2)cc1 :: > 41.4 µM (inactive)

Now look at this entry.
Sample COC(=O)C1(C)CCc2c(ccc3ccccc23)C1=O (stereo not given) — what was its GI50?
40.9 µM (inactive)

====

system: T47D; assay: NCI tumour cell line growth inhibition, 48 h
Activity calls are given as the source filed them. Rule as the data show it: active = GI50 up to about 1.1 µM and inactive = higher.
Your response should consist of one outcome taken from label 1 for active, label 0 for inactive

O=C1C=CC=C/C1=C1\N=C(c2ccccc2OCC(=O)c2ccc(Br)cc2)SS1 :: label 0
Cc1ccc([N+](=O)[O-])cc1S(=O)(=O)Nc1ccc(C2=NN(S(=O)(=O)c3cc([N+](=O)[O-])ccc3C)C(c3ccccc3O)C2)cc1 (stereo not drawn) :: label 0
O=C(Cc1ccccc1)NNc1nc(NNC(=O)c2ccncc2)nc(Nc2ccc([N+](=O)[O-])cc2)n1 :: label 0
O=C(O)[C@@H]1C[C@@H](O)CN1C(=O)OCc1ccccc1 :: label 0
Cc1ccc2c(sc(-c3ccc4c(c3)sc(-c3ccc(N(C)C)cc3)[n+]4C)[n+]2C)c1S(=O)(=O)O.Cc1ccc2c(sc(-c3ccc4c(c3)sc(-c3ccc5c(c3)sc(-c3ccc(N(C)C)cc3)[n+]5C)[n+]4C)[n+]2C)c1S(=O)(=O)O :: label 0

Called result for "Cc1cc2nc3c(N)nn(CCCN(C)C)c3nc2cc1C"
label 0

Just curious, what result did "COc1ccc(C(=C(Cl)c2ccccc2)c2ccc(OC)cc2)cc1" get here?
label 0

Returns: the outcome recorded for CC12CP(=O)(O)CC1C2(Cl)Cl (stereo not drawn) in this assay.
label 0

====

tested on: U-251; assay: NCI tumour cell line growth inhibition, 48 h
Active and inactive are the calls of the source. No stated cut-off is given here; in the data, active = GI50 up to about 1.1 µM and inactive = higher.
Respond using exactly one of the listed classes: 1 (active), 0 (inactive)

C1CNCCNCCN1 :: 0
COc1ccc(NC(=O)CSC(=O)c2ccccc2)c(SCCSSCCSc2cc(OC)ccc2NC(=O)CSC(=O)c2ccccc2)c1 :: 0
C[C@H](NC(=O)c1ccc(CNC(=O)/C=C/c2cccc(Oc3ccccc3)c2)cc1)c1ccccc1 :: 0
c1ccc(SC(CCCCC(Sc2ccccc2)Sc2ccccc2)Sc2ccccc2)cc1 :: 0
COC(=O)C(CCCCN)NC(=O)C(CCCCN)NC(C)=O.Cc1ccc(C(=O)Nc2ccc(S(=O)(=O)O)c3cc(S(=O)(=O)O)cc(S(=O)(=O)O)c23)cc1NC(=O)c1cccc(NC(=O)Nc2cccc(C(=O)Nc3cc(C(=O)Nc4ccc(S(=O)(=O)O)c5cc(S(=O)(=O)O)cc(S(=O)(=O)O)c45)ccc3C)c2)c1 :: 0

Please share the test call associated with CN(C)CCN1C(=O)c2cccc3cc([N+](=O)[O-])cc(c23)C1=O [MITONAFIDE] .
1

Assay result, entry "C1=N\c2ccc(cc2)/N=C\c2ccc(cc2)OCc2cccc(n2)COc2ccc/1cc2" — outcome?
0

What outcome does the record of this test show for O=C(NC1CCC(=O)N1C(=O)OCc1ccccc1)OCc1ccccc1 (stereo not drawn) ?
0

====

Each entry below carries its reported GI50.
test system: UACC-62; assay: NCI tumour cell line growth inhibition, 48 h
The source made the active and inactive calls. Cut-off read from the data, not from the text of the source: active = GI50 up to about 1.1 µM and inactive = higher.

Recorded GI50, per entry:
CC1(C)COC(C23C4C5C2C2C3C4C52I)=N1 (stereo not drawn) :: > 100 µM (inactive)
CCCCCCCCCCCCCC(=O)OCC1OC(OC)C(NC(=O)N(CCCl)N=O)C(O)C1O (stereo not drawn) :: 1.97 µM (inactive)
NC(=O)N/N=C\c1ccccc1OCc1cccc(COc2ccccc2/C=N\NC(N)=O)n1 :: 19.1 µM (inactive)
O=S(=O)(c1ccccc1)C1CN(Cc2ccccc2)CCN(Cc2ccccc2)C1 :: 11.4 µM (inactive)

Tell me the measured GI50 of "COc1ccc(-c2nc(O)c3ccccc3n2)cc1OC" , please.
> 100 µM (inactive)

# lookup: GI50 of "Cc1[nH]c(=O)nc(N/N=C/c2ccc(O)cc2)c1C(=O)Nc1ccc(Cl)cc1"
> 100 µM (inactive)

Suppose we examine the compound "O=C1/C(=C/c2ccc3c(c2)CCC3)Cc2cc3c(cc21)CCC3" ; what GI50 value has been reported?
> 100 µM (inactive)

Give its GI50 value. Item: CC(NC(=O)c1ccccc1)NC(=O)C(C)C(=O)Nc1ccccc1 (stereo not drawn)
> 100 µM (inactive)

Suppose we examine the compound "Clc1cc(Cl)cc(/N=C/C=C/Nc2cc(Cl)cc(Cl)c2)c1" ; what GI50 value has been reported?
19.7 µM (inactive)

Form field: reported GI50 of "O=C(O)[C@@H]1C[C@@H](O)CN1C(=O)OCc1ccccc1"
> 100 µM (inactive)

I would be grateful if you could share the reported GI50 for "Cc1ccccc1NC(=O)c1c(C)oc2c1C(=O)c1ccccc1C2=O" .
22 µM (inactive)

Tell me the measured GI50 of CCOn1cc(C[C@@]2(O)C(=O)OC3[C@@H](O)CO[C@@]32O)c2ccccc21 (stereo partly drawn) , please.
46.7 µM (inactive)

GI50 for "c1ccc(CN(Cn2cccn2)Cn2cccn2)nc1" ?
43.8 µM (inactive)

Reported GI50, compound "CCN(CC)/N=C\c1c2ccccc2cc2ccccc12" : ____
53.6 µM (inactive)

Request the reported GI50 associated with "Cc1ccc(N)cc1.O=S(=O)(O)/C(=C\c1ccccc1)c1ccccc1"
44 µM (inactive)
